- target.or.system: Human plasma kallikrein (Homo sapiens, UniProt P03952)
- Sequence (P03952 391-638 limits assumed): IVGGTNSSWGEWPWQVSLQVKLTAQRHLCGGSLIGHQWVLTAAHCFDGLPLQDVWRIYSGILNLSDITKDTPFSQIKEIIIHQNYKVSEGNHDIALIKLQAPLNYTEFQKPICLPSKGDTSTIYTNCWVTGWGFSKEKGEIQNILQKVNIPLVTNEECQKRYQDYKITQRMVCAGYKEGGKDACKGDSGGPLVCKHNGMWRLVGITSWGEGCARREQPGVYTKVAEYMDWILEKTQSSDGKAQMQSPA
- Sequence (P03952 20-390 partner limits assumed): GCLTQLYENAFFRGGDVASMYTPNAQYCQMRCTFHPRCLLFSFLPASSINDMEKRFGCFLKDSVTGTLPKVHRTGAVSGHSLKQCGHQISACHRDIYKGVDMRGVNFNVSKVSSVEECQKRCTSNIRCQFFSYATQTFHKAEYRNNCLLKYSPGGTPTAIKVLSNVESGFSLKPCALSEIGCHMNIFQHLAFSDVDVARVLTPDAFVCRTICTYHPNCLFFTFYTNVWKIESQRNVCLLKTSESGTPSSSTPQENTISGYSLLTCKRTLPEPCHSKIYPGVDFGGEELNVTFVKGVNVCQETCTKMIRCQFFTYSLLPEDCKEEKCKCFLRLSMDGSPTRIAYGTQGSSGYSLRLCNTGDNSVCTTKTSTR
- procedure.summary: Determination of the IC50 for plasma kallikrein
- measurement.conditions: 25° C., substrate H-DPro-Phe-Arg-AFC; read-out: IC50 (human PKaI)
observable: pIC50
Keep in mind that pIC50 stands for -log10 of concentration in molar terms.

query: Param readout= pIC50; system= Human plasma kallikrein (Homo sapiens, UniProt P03952); entry= "COCc1nn(Cc2ccc(Cn3ccccc3=O)cc2)cc1C(=O)NCc1c(F)ccc(OC)c1F" ; returns value.
result: 8.35
